Cited source for all entries: patent US6083920A

Would you mind telling me the reported Ins-P-n, modulator Lsm:Sph of each entry?
test system: InsP3 signalling in primary chick cortical neurons; test: Phosphoinositide hydrolysis assay (InsP3 signalling) in cultured primary cortical neurons; format: cell-based; details: 20 μM Lysosphingomyelin + 20 μM Sphingosine, then 100 μM agonist 20 min; normalized to control = 1.00
Answers are plain numbers.

INSERT INTO results (compound, system_under_test, assay_result) VALUES
  ('N[C@@H](CC(=O)O)C(=O)O [Aspartate, aspartate]', 'InsP3 signalling in primary chick cortical neurons', 2.00);

# per-item lookup of Ins-P-n, modulator Lsm:Sph; items listed below
1. NC(C(=O)O)c1cc(O)no1 (stereo not shown) [Ibotenate, ibotenate]
2. N[C@@H](Cn1oc(=O)[nH]c1=O)C(=O)O [Quisqualate, quisqualate]
3. N[C@@H](CCC(=O)O)C(=O)O [Glutamate, glutamate]

2.10
2.25
3.00
